Data provenance is PubChem BioAssay (NCI).

assay-explanation: NCI Yeast Anticancer Drug Screen. Data for the bub3 strain (AID 167)
assay-setup: S. cerevisiae bub3 mutant strain, at 5.0 µM (retest, dose inferred, filed as 0.5)
The panel holds about 79,000 compounds, 15% with a hit somewhere; the sample as a whole holds those more often. Active and inactive are the calls of the source. Cut-off read from the data, not from the text of the source: active = growth inhibition above about 70%; inactive = the rest.
Please reply with one of these outcomes: active, inactive

Worked set:
[ask] Assay result, entry "Cc1c(O)ccc(SC#N)c1C" — outcome?
[reply] inactive

[ask] Assay result, entry "COc1ccc(Nc2nc3ccc(C(F)(F)F)cc3nc2C(=O)O)cc1" — outcome?
[reply] inactive

[ask] Assay result, entry "CN(C)c1ccc(C(=C2C=CC(=[N+](C)C)C=C2)c2ccc(N(C)C)cc2)cc1" — outcome?
[reply] active

[ask] Assay result, entry "CC(=O)N1CC(=O)NC1=S" — outcome?
[reply] inactive

[ask] Assay result, entry Cc1cc(O)c2c(c1)C(=O)C(c1c(C)cc3c(c1O)C(=O)C1OC1C3=O)=CC2=O (configuration not stated) — outcome?
[reply] active

[ask] Assay result, entry "CCOC(=O)c1cc(CC)sc1NC(=O)CC(C)=O" — outcome?
[reply] inactive

[ask] Assay result, entry "C(=N\Nc1ccc2ccccc2n1)/c1ccccn1" — outcome?
[reply] inactive

[ask] Assay result, entry "CC(=O)Oc1ccc(OC(C)=O)c2c1CC=CC2" — outcome?
[reply] inactive

***
[ask] Assay result, entry "COc1c(/C=C/C=O)cc2c(c1OC)OCO2" — outcome?
[reply] inactive

[ask] Assay result, entry "CCCCCCCCCCCC[n+]1ccc(CCCCCCCCC)cc1" — outcome?
[reply] active

[ask] Assay result, entry "Cc1nn(CCO)c(C)c1N=[N+]([O-])c1c(C)nn(CCO)c1C" — outcome?
[reply] inactive

[ask] Assay result, entry "[O-][n+]1cccc2cccc(O)c21" — outcome?
[reply] inactive

* * *

assay-explanation: NCI Yeast Anticancer Drug Screen. Data for the sgs1 mgt1 strain (AID 161);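 note: 0% = growth of cultures given vehicle only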
assay-setup: S. cerevisiae sgs1 mgt1 strain, at 5.0 µM (retest, dose inferred, filed as 0.5), stronger effect = higher value
Compounds without any hit were thinned out: in the full panel of roughly 79,000, 15% have a hit.
measured-metric: growth inhibition (%)
Numbers only, in %.

Dear colleague, could you please provide growth inhibition for the compounds listed below?
1. C/C(=N\NC(=S)N(C)C)c1ccccn1
2. On1c(-c2ccccc2)nc2ccccc2c1=S
3. CCN(CC)CC(O)CNc1ccc(NCC2CO2)c2c1C(=O)c1ccccc1C2=O (stereo not given)

[reply]
1: 93; 2: 47; 3: 76

* * *

assay-explanation: NCI Yeast Anticancer Drug Screen. Data for the rad50 strain (AID 155);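 note: 0% = growth of vehicle-only cultures of the same strain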
assay-setup: S. cerevisiae rad50 strain growth inhibition; at 50.0 µM
The panel holds about 79,000 compounds, 15% with a hit somewhere; the sample as a whole holds those more often. Calls of active or inactive are those of the source. Cut-off read from the data, not from the text of the source: active = growth inhibition above about 70%; inactive = the rest.
Please reply with one of these outcomes: active, inactive

Worked set:
[ask] Assay result, entry "Nc1cc(-c2ccccc2)ccc1O" — outcome?
[reply] active

[ask] Assay result, entry "c1ccc2sc(SSN3CC4CCC(CC4)C3)nc2c1" — outcome?
[reply] inactive

***
[ask] Assay result, entry "Cc1nc(Sc2nc3ccc([N+](=O)[O-])cc3s2)sc1C" — outcome?
[reply] active

[ask] Assay result, entry "O=Cc1ccc(-c2ccc(-c3ccc(CO)s3)o2)s1" — outcome?
[reply] inactive

[ask] Assay result, entry "CN(C)c1ccc2cc3c(cc2c1)Oc1ccccc1N3.[Cl][Zn][Cl]" — outcome?
[reply] active
